The reported numbers originate from patent US20260109776A1.

fold over control (gMFI) values by entry
Target: T1, human TNFR10 (human)
T1 construct: whole, on cells; Name as printed is ambiguous (TNFRSF10A-D)
Assay: flow cytometry, HEK293 transfectants vs control cells
Numbers only here, please. The scale is fold.

33H9 (antibody, IgG4, V domains shown, also called 4897-1) VH: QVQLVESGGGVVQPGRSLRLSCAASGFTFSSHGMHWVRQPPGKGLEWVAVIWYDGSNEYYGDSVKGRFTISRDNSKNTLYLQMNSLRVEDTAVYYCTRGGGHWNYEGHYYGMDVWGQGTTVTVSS VL: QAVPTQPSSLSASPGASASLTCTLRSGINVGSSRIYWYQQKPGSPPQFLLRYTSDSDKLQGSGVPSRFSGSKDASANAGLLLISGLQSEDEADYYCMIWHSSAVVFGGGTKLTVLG    0.89
35F11 (antibody, IgG4, V domains shown, also called 4868-1) VH: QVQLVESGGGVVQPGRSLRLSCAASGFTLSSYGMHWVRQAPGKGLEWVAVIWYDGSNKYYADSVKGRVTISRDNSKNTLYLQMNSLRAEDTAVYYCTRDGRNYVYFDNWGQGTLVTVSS VL: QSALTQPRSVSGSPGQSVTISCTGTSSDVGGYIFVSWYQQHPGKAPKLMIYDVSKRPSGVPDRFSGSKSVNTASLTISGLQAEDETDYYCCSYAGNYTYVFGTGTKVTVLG    0.73
36F3 (antibody, IgG4, V domains shown, also called 4891-1) VH: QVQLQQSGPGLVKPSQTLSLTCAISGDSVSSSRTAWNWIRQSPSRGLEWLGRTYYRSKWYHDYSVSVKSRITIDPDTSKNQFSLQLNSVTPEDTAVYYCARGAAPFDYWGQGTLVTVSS VL: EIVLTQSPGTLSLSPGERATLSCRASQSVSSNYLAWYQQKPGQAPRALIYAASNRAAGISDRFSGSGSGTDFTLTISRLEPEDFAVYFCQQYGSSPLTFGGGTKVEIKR    0.86

# ---- query binder ----
Any idea what its fold over control (gMFI) is? The binder is 30A12 (antibody, IgG4, V domains shown, also called 4878-1) VH: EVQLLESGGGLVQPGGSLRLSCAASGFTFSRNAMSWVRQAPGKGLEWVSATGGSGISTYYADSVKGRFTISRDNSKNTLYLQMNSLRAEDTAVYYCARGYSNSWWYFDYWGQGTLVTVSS VL: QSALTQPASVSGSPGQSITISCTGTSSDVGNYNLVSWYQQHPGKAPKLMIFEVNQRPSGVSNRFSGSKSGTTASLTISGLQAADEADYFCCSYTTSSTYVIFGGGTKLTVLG 0.91
